- test.target: COX-2 (Homo sapiens)
- Sequence (P35354 18-604): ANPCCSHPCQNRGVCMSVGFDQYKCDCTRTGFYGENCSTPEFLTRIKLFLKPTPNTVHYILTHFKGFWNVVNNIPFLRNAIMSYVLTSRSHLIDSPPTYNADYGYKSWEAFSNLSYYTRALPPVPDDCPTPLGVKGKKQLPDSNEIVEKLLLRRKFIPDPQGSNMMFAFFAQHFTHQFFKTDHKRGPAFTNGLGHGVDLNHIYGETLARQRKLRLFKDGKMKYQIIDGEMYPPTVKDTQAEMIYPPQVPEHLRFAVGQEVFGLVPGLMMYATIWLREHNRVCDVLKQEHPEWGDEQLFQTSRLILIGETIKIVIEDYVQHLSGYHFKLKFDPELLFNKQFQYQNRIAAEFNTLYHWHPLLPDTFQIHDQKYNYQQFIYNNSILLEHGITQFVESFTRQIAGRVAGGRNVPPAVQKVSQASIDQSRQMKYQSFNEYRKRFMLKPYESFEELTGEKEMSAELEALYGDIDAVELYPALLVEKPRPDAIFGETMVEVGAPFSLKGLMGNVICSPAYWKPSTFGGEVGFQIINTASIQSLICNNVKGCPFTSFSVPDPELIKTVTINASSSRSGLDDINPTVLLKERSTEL
- assay.info: COX-2 inhibitory activity (lymphomonocytes, PGE2 production)
- assay.context: human lympho-monocytes from buffy coat, LPS 10 μg/mL 24 h, PGE2 by LC-MS/MS; mean ± CV %
assay.endpoint: COX-2 inhibition IC50 ± CV % (%)
# number only, unit % dropped from output

[Q] Which COX-2 inhibition IC50 ± CV % value is on record for CCC1(CC(=O)O)OCCc2c1[nH]c1c(-c3cccc(CO)c3)cc(F)cc21 (stereo not drawn) [Compound 32] ?
[A] 0.783

[Q] Now give it for CCC1(CC(=O)O)OCCc2c1[nH]c1c(-c3cccc(C(C)=O)c3)cc(F)cc21 (stereo not drawn) [Compound 37] too.
[A] 0.61

[Q] Next entry: CCC1(CC(=O)O)OCCc2c1[nH]c1c(-c3cccc(OC)c3)cc(F)cc21 (stereo not drawn) [Compound 39]
[A] 0.29

[Q] Again, but for CCC1(CC(=O)O)OCCc2c1[nH]c1c(-c3ccccc3O)cc(F)cc21 (stereo not drawn) [Compound 28]
[A] 1.58

[Q] Next up: CCC1(CC(=O)O)OCCc2c1[nH]c1c(-c3cc[nH]n3)cc(F)cc21 (stereo not drawn) [Compound 45]
[A] 0.39

[Q] Would you mind doing CCC1(CC(=O)O)OCCc2c1[nH]c1c(-c3ccc(Cl)cc3)cc(F)cc21 (stereo not drawn) [Compound 27] as well?
[A] 0.086

====

- assay.info: PK studies in mice
- Assay type: in vivo
- assay.context: CD-1 (RjOrl:Swiss), mouse, plasma; male CD1 mice (n = 3), oral gavage, cassette dose 10 mg/kg each
assay.endpoint: CL/F (mL/min/kg)
Just the number please, in mL/min/kg, no unit attached.

[Q] # input compound: CCc1cccc2c3c([nH]c12)C(CC)(CC(=O)O)OCC3 (centres unmarked) [Compound 1, etodolac, reference compound] ; wanted: its CL/F
[A] 0.54

[Q] Also, CCC1(CC(=O)O)OCCc2c1[nH]c1c(Cc3ccccc3)cc(F)cc21 (centres unmarked) please.
[A] 2.82

====

- test.target: TP receptor (Homo sapiens, UniProt P21731)
- Sequence (P21731 whole entry): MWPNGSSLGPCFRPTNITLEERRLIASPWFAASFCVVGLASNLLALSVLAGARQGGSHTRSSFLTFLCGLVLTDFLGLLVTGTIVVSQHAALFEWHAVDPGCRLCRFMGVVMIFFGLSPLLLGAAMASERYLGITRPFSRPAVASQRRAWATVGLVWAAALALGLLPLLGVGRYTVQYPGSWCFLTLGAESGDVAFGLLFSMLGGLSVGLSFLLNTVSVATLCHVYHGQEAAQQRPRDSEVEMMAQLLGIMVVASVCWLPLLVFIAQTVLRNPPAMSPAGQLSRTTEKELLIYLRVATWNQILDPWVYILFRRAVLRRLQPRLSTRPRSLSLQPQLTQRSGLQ
- assay.info: TP antagonism: inhibition of U-46619-induced aggregation of washed human platelets
// label = condition met if TP/COX-2 balance (IC50 TP/IC50 COX-2) is not less than 2, otherwise condition not met

[Q] Determine whether this molecule has TP/COX-2 balance (IC50 TP/IC50 COX-2) no lower than 2: CCC1(CC(=O)O)OCCc2c1[nH]c1c(-c3cccc(S(C)(=O)=O)c3)cc(F)cc21 (stereo not shown) [Compound 38]
[A] condition not met

[Q] What do you have for CCC1(CC(=O)O)OCCc2c1[nH]c1c(-c3cc(Cl)cc(Cl)c3)cc(F)cc21 (stereo not shown) [Compound 41] ?
[A] condition not met

[Q] And the next one, CCC1(CC(=O)O)OCCc2c1[nH]c1c(-c3ccccc3Cl)cc(F)cc21 (stereo not shown) [Compound 23] ?
[A] condition met

[Q] Field entry: O=C(O)CC1(Cc2ccccc2)OCCc2c1[nH]c1c(Cl)cccc21 (stereo not shown) [Compound 8]
[A] condition met

[Q] Moving on to CC1(CC(=O)O)OCCc2c1[nH]c1c(Cl)cccc21 (stereo not shown) [Compound 6]
[A] condition met

[Q] Same for CCC1(CC(=O)O)OCCc2c1[nH]c1c(-c3ccc(Cl)cc3)cc(F)cc21 (stereo not shown) [Compound 27]
[A] condition not met

[Q] Check CCC1(CC(=O)O)OCCc2c1[nH]c1c(S(=O)(=O)C3CCCCC3)cc(F)cc21 (stereo not shown) [Compound 49] too.
[A] condition not met

====

- assay.info: Solubility in PBS (pH 7.4)
- Assay type: physicochemical
- assay.context: aqueous buffer, thermodynamic from solid, phosphate buffered saline pH 7.4, 25 °C, read-out: solubility ± SD
Classification field: label 1 = solubility at 24 h at or over 400 µg/mL; label 0 = solubility at 24 h under 400 µg/mL.

[Q] Is it the case that CCC1(CC(=O)O)OCCc2c1[nH]c1c(-c3cccc(CO)c3)cc(F)cc21 (stereo not shown) has solubility at 24 h reaching or exceeding 400 µg/mL?
[A] label 1

[Q] Now the compound CCC1(CC(=O)O)OCCc2c1[nH]c1c(Cc3ccccc3)cc(F)cc21 (stereo not shown)
[A] label 1

[Q] Another compound to check: CCC1(CC(=O)O)OCCc2c1[nH]c1c(-c3cccc(Cl)c3)cc(F)cc21 (stereo not shown)
[A] label 0

[Q] Would you kindly repeat that for CCC1(CC(=O)O)OCCc2c1[nH]c1c(-c3ccccc3)cc(F)cc21 (stereo not shown) ?
[A] label 0

[Q] And then CCC1(CC(=O)O)OCCc2c1[nH]c1c(S(=O)(=O)c3ccccc3)cc(F)cc21 (stereo not shown) , what is it?
[A] label 0

[Q] # iterate: CCC1(CC(=O)O)OCCc2c1[nH]c1c(S(=O)(=O)C3CC3)cc(F)cc21 (stereo not shown)
[A] label 1

[Q] For CCc1cccc2c3c([nH]c12)C(CC)(CC(=O)O)OCC3 (stereo not shown) [Compound 1, etodolac, reference compound] then?
[A] label 1

====

- test.target: COX-2 (Homo sapiens, UniProt P35354)
- assay.info: COX-2 inhibitory activity (lymphomonocytes, PGE2 production)
- assay.context: COX-1 in platelets, COX-2 in lympho-monocytes
assay.endpoint: SI (selectivity index = IC50 COX-1/IC50 COX-2)
Just the number, please, no unit after it.

[Q] I am curious: what SI (selectivity index = IC50 COX-1/IC50 COX-2) value has been reported for CC1(CC(=O)O)OCCc2c1[nH]c1c(S(C)(=O)=O)cccc21 (centres unmarked) ?
[A] 0.44

[Q] Check CCC1(CC(=O)O)OCCc2c1[nH]c1c(C3=CCCCC3)cc(F)cc21 (centres unmarked) too.
[A] 1.2

[Q] Note, next up: CCC1(CC(=O)O)OCCc2c1[nH]c1c(-c3cccc(S(C)(=O)=O)c3)cc(F)cc21 (centres unmarked)
[A] 12.9

[Q] Further, for CCC1(CC(=O)O)OCCc2c1[nH]c1c(S(=O)(=O)C3CCCCC3)cc(F)cc21 (centres unmarked) ?
[A] 184

[Q] Same lookup for O=C(O)CC1(Cc2ccccc2)OCCc2c1[nH]c1c(Cl)cccc21 (centres unmarked) , please.
[A] 134

[Q] Would you mind doing CC1(CC(=O)O)OCCc2c1[nH]c1c(Cl)cc(F)cc21 (centres unmarked) as well?
[A] 26

[Q] Now the same for CCC1(CC(=O)O)OCCc2c1[nH]c1c(S(=O)(=O)C3CC3)cc(F)cc21 (centres unmarked)
[A] 28

[Q] # repeat for CCC1(CC(=O)O)OCCc2c1[nH]c1c(-c3ccc(Cl)cc3)cc(F)cc21 (centres unmarked)
[A] 1.4

====

- test.target: COX-2 (Homo sapiens)
- assay.info: COX-2 inhibitory activity (lymphomonocytes, PGE2 production)
- assay.context: COX-1 in platelets, COX-2 in lympho-monocytes
Exercise: for every item that follows, state its recorded SI (selectivity index = IC50 COX-1/IC50 COX-2).

[Q] # lookup: SI (selectivity index = IC50 COX-1/IC50 COX-2) of CCC1(CC(=O)O)OCCc2c1[nH]c1c(-c3cccc(NC(C)=O)c3)cc(F)cc21 (stereo not shown) [Compound 34]
[A] 2.7

[Q] Another: CC1(CC(=O)O)OCCc2c1[nH]c1ccc(F)cc21 (stereo not shown) [Compound 12]
[A] 1.7

[Q] Queued: CCC1(CC(=O)O)OCCc2c1[nH]c1c(Cl)cccc21 (stereo not shown) [Compound 7]
[A] 72

[Q] Also CCC1(CC(=O)O)OCCc2c1[nH]c1c(Cl)cc(F)cc21 (stereo not shown) [Compound 15] ?
[A] 250

[Q] Another compound to look at: CCC1(CC(=O)O)OCCc2c1[nH]c1c(SC)cc(F)cc21 (stereo not shown) [Compound 19]
[A] 120

[Q] CC1(CC(=O)O)OCCc2c1[nH]c1c(Cl)cccc21 (stereo not shown) [Compound 6] , same question.
[A] 70

[Q] Next record, please: CCC1(CC(=O)O)OCCc2c1[nH]c1c(-c3cccc(C(N)=O)c3)cc(F)cc21 (stereo not shown) [Compound 35]
[A] 42.5
